Kindly supply the reported IC50 values for the records listed here.
# target.under.test: JAK2 (a.a. 828-1132) (Homo sapiens, UniProt O60674)
# Construct: JAK2 (a.a. 828-1132); His tag (N)
# Sequence (O60674 828-1132): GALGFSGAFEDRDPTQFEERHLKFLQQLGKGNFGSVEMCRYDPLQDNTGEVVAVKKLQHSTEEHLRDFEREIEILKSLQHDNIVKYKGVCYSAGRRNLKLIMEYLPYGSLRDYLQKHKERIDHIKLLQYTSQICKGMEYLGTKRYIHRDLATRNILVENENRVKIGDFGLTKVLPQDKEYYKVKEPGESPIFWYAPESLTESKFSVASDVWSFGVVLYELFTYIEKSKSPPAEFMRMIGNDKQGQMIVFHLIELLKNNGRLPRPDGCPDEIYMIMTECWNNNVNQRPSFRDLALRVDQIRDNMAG
# test.summary: In vitro JAK kinase assay (HTRF, phosphorylation of biotinylated peptide), JAK2
# Format: biochemical
# measurement.context: Table F; 1 mM ATP
# Protocol: Compounds herein were tested for inhibitory activity of JAK targets according to the following in vitro assay described in Park et al., Analytical Biochemistry 1999, 269, 94-104. […] The phosphorylated peptide was detected by homogenous time resolved fluorescence (HTRF). […] Binding to the Europium labeled antibody took place for 40 minutes and HTRF signal was measured on a Fusion plate reader (Perkin Elmer, Boston, Mass.). […]

Example results:
> print(dat)
                                   molecule  metric.name  observed.value
1  C[C@@H](NC(=O)N1CCN([C@H]2C[C@](CC#N)(n3cc(-c4ncnc5[nH]ccc45)cn3)C2)CC1)C1CC1         IC50    25 to 100 nM
2  N#CC[C@]1(n2cc(-c3ncnc4[nH]ccc34)cn2)C[C@@H](N2CCC(Oc3cc(C#N)cc(C(F)(F)F)n3)CC2)C1 (single isomer, unassigned)         IC50        > 100 nM
3  CC[C@@H](C)NC(=O)N1CCN([C@H]2C[C@](CC#N)(n3cc(-c4ncnc5[nH]ccc45)cn3)C2)CC1         IC50    25 to 100 nM
4  CC[C@@H](C)NC(=O)N1CCN([C@H]2C[C@@](CC#N)(n3cc(-c4ncnc5[nH]ccc45)cn3)C2)CC1         IC50    25 to 100 nM
5  N#CC[C@]1(n2cc(-c3ncnc4[nH]ccc34)cn2)C[C@H](N2CCN(C(=O)NC3CCCC3)CC2)C1         IC50     10 to 25 nM

Requested read-out: IC50. Entry: N#CC[C@]1(n2cc(-c3ncnc4[nH]ccc34)cn2)C[C@H](N2CCC(Oc3cc(CO)nc(C(F)(F)F)n3)CC2)C1
> 100 nM

----------
Assignment: determine reported pIC50 for the given compounds.
# target.under.test: human JAK1 (a.a. 837-1142) (Homo sapiens, UniProt P23458)
# Sequence (P23458 849-1154): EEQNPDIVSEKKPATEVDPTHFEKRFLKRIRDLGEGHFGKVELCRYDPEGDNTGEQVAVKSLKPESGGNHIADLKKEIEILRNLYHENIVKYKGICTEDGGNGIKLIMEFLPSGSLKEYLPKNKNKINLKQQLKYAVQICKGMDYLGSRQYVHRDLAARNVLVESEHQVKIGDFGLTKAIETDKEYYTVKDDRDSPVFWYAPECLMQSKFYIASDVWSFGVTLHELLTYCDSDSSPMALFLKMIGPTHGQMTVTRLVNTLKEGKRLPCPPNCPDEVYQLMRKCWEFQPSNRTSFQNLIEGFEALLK
# test.summary: In vitro JAK kinase assay (HTRF, phosphorylation of biotinylated peptide), JAK1
# Assay type: biochemical
# measurement.context: Table B; 1 mM ATP; read-out: JAK1 IC50
pIC50: −log10 of the molar value. Counter-ions that a name gives are not always drawn.

Sample records with pIC50:
> print(dat)
                                   compound                         target.under.test  observed.value
1  N#CC[C@]1(n2cc(-c3ncnc4[nH]ccc34)cn2)C[C@H](N2CCN(S(=O)(=O)C3CC3)CC2)C1  human JAK1 (a.a. 837-1142) (Homo sapiens, UniProt P23458)          > 8.00
2  N#CC[C@]1(n2cc(-c3ncnc4[nH]ccc34)cn2)C[C@H](N2CCN(C(=O)c3cc(F)cnc3Cl)CC2)C1  human JAK1 (a.a. 837-1142) (Homo sapiens, UniProt P23458)          > 8.00
3  N#CC[C@]1(n2cc(-c3ncnc4[nH]ccc34)cn2)C[C@H](N2CCN(C(=O)N3CCCCC3)CC2)C1  human JAK1 (a.a. 837-1142) (Homo sapiens, UniProt P23458)    7.00 to 7.60
4  N#CC[C@]1(n2cc(-c3ncnc4[nH]ccc34)cn2)C[C@H](N2CCN(C(=O)c3nc(C(F)(F)F)cs3)CC2)C1 [Example 13b]  human JAK1 (a.a. 837-1142) (Homo sapiens, UniProt P23458)          > 8.00

Batch of 5 compounds: report pIC50 for each.
1. N#CC[C@]1(n2cc(-c3ncnc4[nH]ccc34)cn2)C[C@H](N2CCN(C(=O)c3ccc(C(F)(F)F)cc3F)CC2)C1 [Example 18, (trifluoroacetate) Salt]
2. CN(C)Cc1cc(F)cc(C(=O)N2CCN([C@H]3C[C@](CC#N)(n4cc(-c5ncnc6[nH]ccc56)cn4)C3)CC2)c1
3. N#CC[C@]1(n2cc(-c3ncnc4[nH]ccc34)cn2)C[C@H](N2CCN(C(=O)c3cccc(C(F)(F)F)n3)CC2)C1 [Example 20b]
4. N#CC[C@]1(n2cc(-c3ncnc4[nH]ccc34)cn2)C[C@H](N2CCN(C(=O)c3cc(F)cc(C#N)c3)CC2)C1 [Example 12b]
5. N#CC[C@]1(n2cc(-c3ncnc4[nH]ccc34)cn2)C[C@H](N2CCN(Cc3cncc(F)c3)CC2)C1 [Example 23b]

> 8.00
> 8.00
> 8.00
> 8.00
> 8.00

----------
Kindly supply the reported pIC50 values for the records listed here.
# target.under.test: JAK2 (a.a. 828-1132) (Homo sapiens, UniProt O60674)
# Construct: JAK2 (a.a. 828-1132); His tag (N)
# test.summary: In vitro JAK kinase assay (HTRF, phosphorylation of biotinylated peptide), JAK2
# Assay type: biochemical
# measurement.context: Table F; 1 mM ATP
pIC50: −log10 of the molar value.

Some compounds with known pIC50 results, for comparison:
> print(dat)
                                   compound                         target.under.test  metric.name  observed.value
1  CN(C)Cc1cc(CN2CCN([C@H]3C[C@](CC#N)(n4cc(-c5ncnc6[nH]ccc56)cn4)C3)CC2)cc(C(F)(F)F)c1  JAK2 (a.a. 828-1132) (Homo sapiens, UniProt O60674)        pIC50          < 7.00
2  N#CC[C@]1(n2cc(-c3ncnc4[nH]ccc34)cn2)C[C@@H](N2CCC(Oc3cc(CO)cc(C(F)(F)F)n3)CC2)C1 (single isomer, unassigned)  JAK2 (a.a. 828-1132) (Homo sapiens, UniProt O60674)        pIC50          < 7.00

Count: 4. Required value per item: pIC50.
1. N#CC[C@]1(n2cc(-c3ncnc4[nH]ccc34)cn2)C[C@H](N2CCC(Oc3cc(CN4CCCC4)cc(C(F)(F)F)n3)CC2)C1
2. C[C@@H](NC(=O)N1CCN([C@H]2C[C@](CC#N)(n3cc(-c4ncnc5[nH]ccc45)cn3)C2)CC1)C(F)(F)F
3. CC(C)(O)c1cc(C(=O)N2CCN([C@H]3C[C@@](CC#N)(n4cc(-c5ncnc6[nH]ccc56)cn4)C3)CC2)nc(C(F)(F)F)n1
4. CN(C)Cc1cc(OC2CCN([C@H]3C[C@](CC#N)(n4cc(-c5ncnc6[nH]ccc56)cn4)C3)CC2)nc(C(F)(F)F)n1

["7.00 to 7.60", "< 7.00", "7.00 to 7.60", "< 7.00"]

----------
Answer each item with its documented IC50.
# target.under.test: human JAK1 (a.a. 837-1142) (Homo sapiens)
# test.summary: In vitro JAK kinase assay (HTRF, phosphorylation of biotinylated peptide), JAK1
# Type: biochemical
# measurement.context: Table F; 1 mM ATP

These solved cases illustrate the format of a correct answer.
> print(dat)
                              smiles.record  observed.value
1  CC(C)[C@@H](C)NC(=O)N1CCN([C@H]2C[C@](CC#N)(n3cc(-c4ncnc5[nH]ccc45)cn3)C2)CC1         < 10 nM
2  CN(C)Cc1cc(C#N)cc(CN2CCN([C@H]3C[C@@](CC#N)(n4cc(-c5ncnc6[nH]ccc56)cn4)C3)CC2)c1     10 to 25 nM
3  COC(C)(C)c1cc(C(=O)N2CCN([C@H]3C[C@](CC#N)(n4cc(-c5ncnc6[nH]ccc56)cn4)C3)CC2)nc(C(F)(F)F)n1         < 10 nM
4  CN(C)Cc1cc(OC2CCN([C@H]3C[C@](CC#N)(n4cc(-c5ncnc6[nH]ccc56)cn4)C3)CC2)nc(C(F)(F)F)n1     10 to 25 nM
5  CN(C)Cc1cc(C#N)cc(C(=O)N2CCN([C@H]3C[C@](CC#N)(n4cc(-c5ncnc6[nH]ccc56)cn4)C3)CC2)c1         < 10 nM
6  C[C@@H](NC(=O)N1CCN([C@H]2C[C@](CC#N)(n3cc(-c4ncnc5[nH]ccc45)cn3)C2)CC1)C1CC1         < 10 nM

Kindly give each listed record's IC50.
1. N#CC[C@]1(n2cc(-c3ncnc4[nH]ccc34)cn2)C[C@H](N2CCC(Oc3cc(CN4CC(O)C4)cc(C(F)(F)F)n3)CC2)C1
2. N#CC[C@]1(n2cc(-c3ncnc4[nH]ccc34)cn2)C[C@H](N2CCN(C(=O)c3cc(CNC4CCC4)nc(C(F)(F)F)n3)CC2)C1
3. CC(C)(O)c1cc(C(=O)N2CCN([C@H]3C[C@](CC#N)(n4cc(-c5ccnc6[nH]ccc56)cn4)C3)CC2)nc(C(F)(F)F)n1
4. CN(CC(F)(F)F)C(=O)N1CCN([C@H]2C[C@](CC#N)(n3cc(-c4ncnc5[nH]ccc45)cn3)C2)CC1
5. CN(C)Cc1cc(OC2CCN([C@H]3C[C@](CC#N)(n4cc(-c5ncnc6[nH]ccc56)cn4)C3)CC2)cc(C(F)(F)F)c1
6. CNC(=O)N1CCN([C@H]2C[C@](CC#N)(n3cc(-c4ncnc5[nH]ccc45)cn3)C2)CC1

1. < 10 nM
2. < 10 nM
3. < 10 nM
4. 25 to 100 nM
5. 10 to 25 nM
6. 10 to 25 nM

Record request: IC50 value, item N#CC[C@]1(n2cc(-c3ncnc4[nH]ccc34)cn2)C[C@H](N2CCC(Oc3cc(CN4CCC(F)(F)C4)cc(C(F)(F)F)n3)CC2)C1
10 to 25 nM
